Assignment: determine reported TGI for the given molecules.
- Tested on: KM12 colon
- assay-details: NCI tumour cell line growth inhibition, 48 h

Consider the reported TGI for these molecules:
molecule | assayed-target | TGI
S=C1CCSc2c(ccc3ccccc23)N1 | KM12 colon | > 100 µM
Cc1nnc(-c2cccc(-c3ccc(C(=O)NCC4CC4)cc3)c2)o1 | KM12 colon | > 25 µM
O=C(c1ccccc1)C1OC1c1ccc([N+](=O)[O-])cc1 (stereo not given) | KM12 colon | 17.7 µM
COc1ccc(C2SCC(=O)N2NC(=O)c2ccc(NC(C)=O)cc2)c(OC)c1 (stereo not given) | KM12 colon | > 100 µM

Batch of 5 molecules: report TGI for each.
1. O=c1[nH]nc(Cc2c[nH]c3ccccc23)o1
2. C=C(CCC/C(C)=C/C=C/[C@@H](C)CCCc1ccoc1)C[C@@H]1OC(=O)[C@H](C)[C@@H]1O
3. CC(C)=CCC[C@](C)(O)[C@H]1CC[C@]2(C)[C@@H]1CC[C@@H]1[C@@]3(C)CC/C(=N/O)C(C)(C)[C@@H]3CC[C@]12C
4. O=C(CN1CCOCC1)c1ccc2c(c1)oc(=O)n2CCN1CCOCC1
5. NCCCC[C@H](N)C(=O)Nc1ccc(-c2nc3ccccc3s2)cc1

Response line:
1: > 100 µM; 2: 16.1 µM; 3: > 100 µM; 4: > 100 µM; 5: 34.9 µM

Prompt line: State TGI on KM12 colon. Entry: O=C(O)CCC(N=Cc1nc(-c2ccccc2)oc1O)C(=O)O (stereo not given)
Response line: > 100 µM

====

- Tested on: CCRF-CEM leukemia
- assay-details: NCI tumour cell line growth inhibition, 48 h
measure-name: TGI

Check out these entries, answers already filled in.
molecule | TGI
CS(=O)(=O)c1ccc(N=C/C=C/Nc2ccc(S(C)(=O)=O)cc2)cc1 | > 100 µM
COc1cc(-c2cc(O)c(-c3ccc4ccccc4n3)c(=O)[nH]2)cc(OC)c1OC | > 30.6 µM
COC(=O)c1cc(C(=CCC[C@H]2CC[C@@]3(C)C(CCC4C3CC[C@@]3(C)C4CC[C@@H]3C(C)CCCC(C)C)C2)c2cc(Cl)c(O)c(C(=O)OC)c2)cc(Cl)c1O (some centres undefined) | > 10 µM

Now look at this one.
Prompt line: Report its TGI with CCRF-CEM leukemia as the test system: CN1C(=O)C2C3C=C4c5ccccc5N(c5ccccc5)C4(C2C1=O)[C@H]1C(=O)N(C)C(=O)[C@@H]31 (some centres undefined)
Response line: > 100 µM

====

- Tested on: KM12 colon
- assay-details: NCI tumour cell line growth inhibition, 48 h
measure-name: GI50

Observe how each entry below is paired with its result.
molecule | result
C#CCSc1cc(Cl)c(C)cc1S(=O)(=O)Nc1nc2ccccc2o1 | 27.4 µM
Oc1ccc(-c2nc3ccccc3s2)cc1CN(Cc1ccccn1)Cc1ccccn1 | 0.909 µM
N=c1ccn(O)cc1/C=C1/C(=O)Nc2ccccc21 | > 100 µM
CS(=O)(=O)CCc1cccc(C(=O)c2cnn(-c3ccc(F)cc3)c2N)c1 | > 25 µM
c1ccc(CN2COc3c(ccc4c3OCN(Cc3ccccc3)C4)C2)cc1 | 0.621 µM

Look at each molecule and report its GI50.
1. Cc1cc(N2CCOCC2)nc(N[C@@H]2CCC[C@H](Nc3ccnc4cc(Cl)ccc34)C2)n1
2. O=C(c1ccccc1)C(CN1CCCCC1)c1ccccc1 (stereo not given)
3. CCC(=C/[C@H](C)C/C=C/C(C)=C/[C@@H](C)C(=O)[C@@H](C)[C@H](O)[C@@H](C)CC)/C=C/[C@@H]1OC(=O)C=C[C@H]1C
4. S=C(Nc1ccc(-c2nc3ccccc3[nH]2)cc1)Nc1ccc(-c2nc3ccccc3[nH]2)cc1
5. Cn1c2c(c3ccc([N+](=O)[O-])cc3c1=O)C(=O)c1ccccc1-2

Response line:
1. 3.06 µM
2. 3.75 µM
3. < 0.01 µM
4. 43.5 µM
5. > 100 µM

====

- Tested on: NCI-H522 lung
- assay-details: NCI tumour cell line growth inhibition, 48 h
Threshold check on TGI: at or above 20 µM gives 1.0, strictly below gives 0.0.

Worked examples follow.
compound | group
O=C1c2ccccc2-c2nnc3c(c21)-c1ccccc1C3 | 1.0
Cc1cccc(C)c1NC(=O)C1C(=O)N(c2c(C)cccc2C)C(=O)/C1=N\N (stereo not drawn) | 1.0
COc1ccc(N2C(=O)C3c4[nH]c5ccc(Br)cc5c4C4CCC(C(C)(C)C)CC4C3C2=O)cc1 (stereo not drawn) | 1.0

Prompt line: Would you say `CCC(=C/[C@H](C)C/C=C/C(C)=C/[C@@H](C)C(=O)[C@@H](C)[C@H](O)[C@@H](C)CC)/C=C/[C@@H]1OC(=O)C=C[C@H]1C` shows TGI at minimum 20 µM?
Response line: 0.0

Prompt line: Record `CC(C)O/N=C/c1cc(NC(=S)OC(C)C)ccc1Cl` ; criterion: TGI no lower than 20 µM. Met?
Response line: 1.0

Prompt line: # bool: TGI of COC(=O)C1(C#N)C(C)(C)N=C(c2ccccc2)C12CCCCC2 (stereo not drawn) >= 20 µM
Response line: 1.0

Prompt line: Quick check: does `O=C(NCCCO)c1cc(Cl)ccc1O` have TGI greater than or equal to 20 µM?
Response line: 0.0

Prompt line: Determine whether this compound has TGI no lower than 20 µM: COC(=O)C(Cc1c[nH]c2ccccc12)NC(=O)c1ccc(-c2ccc(Cl)cc2Cl)o1 (stereo not drawn)
Response line: 1.0

Prompt line: Does TGI meet or surpass 20 µM for `COc1cc(/C=N/n2c(-c3ccccc3)nn(C(C)=O)c2=O)cc(OC)c1OC` ?
Response line: 0.0

Prompt line: Entry CC(Nc1ccc(S(=O)(=O)N=C(N)N)cc1)c1c2ccccc2nc2ccccc12 (stereo not drawn) : is its TGI no less than 20 µM?
Response line: 1.0

Prompt line: Decide: TGI of `CCOC(=O)C1=NN(c2ccc([N+](=O)[O-])cc2)[C@@]2(C)C[C@]3(c4ccccc4)N(c4ccc([N+](=O)[O-])cc4)N=C(C(=O)OCC)N3c3ccccc3N12` >= 20 µM?
Response line: 1.0

Prompt line: Is the recorded value of TGI equal to or greater than 20 µM for this compound? NC(Cc1ccc(N(CCCl)CCCl)cc1)C(=O)NC(CCC(=O)O)C(=O)O (stereo not drawn)
Response line: 1.0

Prompt line: Does the reported TGI for `O=[N+]([O-])C(=C(N1CCOCC1)N1CCOCC1)/C(Cl)=C(\Cl)Br` fall at or above the 20 µM mark?
Response line: 0.0

Prompt line: Answer whether TGI of `CCN(CC)CCCNCc1cc(-c2ccccc2)nc2ccccc12` is greater than or equal to 20 µM.
Response line: 1.0

====

- Test system: DU-145 prostate
- assay-details: NCI tumour cell line growth inhibition, 48 h
measure-name: GI50

Examples from the recorded data:
compound | assayed-target | GI50
O=C(Nc1ccc(-n2ccc3c(NC(=O)c4ccccc4)ncnc32)cc1)Nc1ccc(Cl)c(Cl)c1 | DU-145 prostate | 1900 nM
Cc1nc2ccccc2c(/C=C/c2ccc(Cl)cc2)c1C(=O)/C=C/c1ccc(C(F)(F)F)cc1 | DU-145 prostate | 1030 nM
COc1cc(C(=O)N2CCN(c3ncnc4ccccc34)CC2)c(N)cc1OCc1ccccc1 | DU-145 prostate | 7210 nM
C[As](C)SCC(COC(=O)C(Cl)c1ccccc1)OC(=O)C(Cl)c1ccccc1 (stereo not given) | DU-145 prostate | 1240 nM
CC(C)=CCC/C(C)=C/CC/C(C)=C/CSc1ccccc1C(=O)O | DU-145 prostate | 24600 nM

Dear colleague, could you send me GI50 for each of the items below? Thanks.
1. c1ccc(CN2COc3c(ccc4c3OCN(Cc3ccccc3)C4)C2)cc1
2. Cc1csc(/C=C/C(=O)c2nnn(-c3ccnc4c(C(F)(F)F)cccc34)c2C)c1
3. COC(=O)c1cc(O)c2cc3c(cc2c1-c1cc(OC)c(OC)c(OC)c1)OCO3
4. Cc1cc(N2CCOCC2)nc(N[C@@H]2CCC[C@H](Nc3ccnc4cc(Cl)ccc34)C2)n1

Response line:
["569 nM", "> 100000 nM", "2160 nM", "3820 nM"]

Prompt line: Read off the recorded GI50 for `CCN(CC)CCCNCc1cc(-c2ccccc2)nc2ccccc12`
Response line: 21200 nM

====

- Tested on: NCI-H522 lung
- assay-details: NCI tumour cell line growth inhibition, 48 h
Please go through the items and note down their TGI.
Answers are plain numbers, in µM.

Observe how each entry below is paired with its result.
compound | value-unit | TGI
C#Cc1c(/C=C/C(=O)OCC)ccc2ccccc12 | µM | 31.1
O=c1[nH]c(=S)[nH]c2c1CN(CCCN1CCOCC1)CN2 | µM | 52.3
CC[C@@]1(C)CCC2c3ccc(O)cc3CC[C@H]2C1C (some centres undefined) | µM | 36.1

We now examine a further compound.
Prompt line: Name the recorded TGI of the compound listed here: `Oc1ccc(-c2nc3ccccc3s2)cc1CN(Cc1ccccn1)Cc1ccccn1`
Response line: 14.2
